The measurements presented in this section are drawn from patent US20240270762A1.

Quick reference: MIC of the listed items.
Tested on: N. gonorrhoeae WHO G
Assay: Liquid broth MIC in Fastidious broth
Details: Neisseria gonorrhoeae, read-out: Minimum Inhibitory Concentration, WHO G

Below are worked cases with known answers.
- O=C(NCCCS(=O)(=O)N1CCN(C(=O)N[C@@H](C(=O)N[C@H]2Cc3ccc(F)c(C(=O)O)c3OB2O)c2cc(F)c(O)c(O)c2Cl)C1=O)c1cccc(O)c1: 16 to 32 µg/mL
- O=C(NCCCN1CCN(C(=O)NC(C(=O)N[C@H]2Cc3ccc(F)c(C(=O)O)c3OB2O)c2cc(F)c(O)c(O)c2Cl)C(=O)C1=O)c1ccncc1Cl (some centres unmarked): 16 to 32 µg/mL
- O=C(NCCCN1CCN(C(=O)N[C@@H](C(=O)N[C@H]2Cc3ccc(F)c(C(=O)O)c3OB2O)c2cc(F)c(O)c(O)c2Cl)C1=O)c1cccc(O)c1: 4 to 8 µg/mL
- O=C(NCCS(=O)(=O)N1CCN(C(=O)N[C@@H](C(=O)N[C@H]2Cc3ccc(F)c(C(=O)O)c3OB2O)c2cc(F)c(O)c(O)c2Cl)C1=O)c1ccc(O)cc1: 4 to 8 µg/mL

Now, please, on to the next compound.
Form field MIC, entry O=C(NCCS(=O)(=O)N1CCN(C(=O)NC(C(=O)N[C@H]2Cc3ccc(F)c(C(=O)O)c3OB2O)c2cc(F)c(O)c(O)c2Cl)C1=O)c1ccncc1 (some centres unmarked) : 4 to 8 µg/mL

* * *

Target: PBP2 from Neisseria gonorrhoeae (FA19) (Neisseria gonorrhoeae)
Sequence (P08149 whole entry): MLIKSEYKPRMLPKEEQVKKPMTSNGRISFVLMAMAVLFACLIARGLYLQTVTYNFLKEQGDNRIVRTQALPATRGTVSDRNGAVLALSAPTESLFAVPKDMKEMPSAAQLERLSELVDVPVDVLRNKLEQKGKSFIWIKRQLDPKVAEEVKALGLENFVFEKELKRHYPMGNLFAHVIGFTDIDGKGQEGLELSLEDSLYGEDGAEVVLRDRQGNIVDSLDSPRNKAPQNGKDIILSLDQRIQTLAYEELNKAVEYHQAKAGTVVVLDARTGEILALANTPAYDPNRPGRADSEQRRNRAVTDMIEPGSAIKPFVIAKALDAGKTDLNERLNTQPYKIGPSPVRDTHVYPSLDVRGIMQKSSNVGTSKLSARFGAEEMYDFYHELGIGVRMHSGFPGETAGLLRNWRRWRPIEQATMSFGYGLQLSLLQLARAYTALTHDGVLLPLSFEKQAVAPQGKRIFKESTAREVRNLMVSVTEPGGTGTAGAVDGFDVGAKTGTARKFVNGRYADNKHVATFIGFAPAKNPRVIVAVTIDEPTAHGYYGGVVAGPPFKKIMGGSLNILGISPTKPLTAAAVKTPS
Test: Bocillin-FL fluorescence polarization competition binding, N. gonorrhoeae PBP2
Conditions: fluorescence polarization competition binding assay using Bocillin-FL, read-out: N. gonorrhoeae PBP2 Potency
Text: To determine the ability of boronic acid-based test PBP inhibitors to bind Penicillin Binding Proteins (PBPs), Bocillin-FL (fluorescently-labeled penicillin V; ThermoFisher Scientific) was used in a fluorescence polarization (FP) competition binding assay to assess inhibitor binding to PBP3 from Escherichia coli (K-12), PBP3 from Pseudomonas aeruginosa (PAO1), PBP1a and PBP3 from Acinetobacter baumannii (ATCC 19606), and PBP2 from Neisseria gonorrhoeae (FA19). […]
Value type: EC50

Below, each entry is followed by its recorded EC50 result.
- O=C(NC(C(=O)N[C@H]1Cc2cccc(C(=O)O)c2OB1O)c1ccc(P(=O)(O)O)cc1)c1ccccn1 (stereo partly drawn) [Example 32]: < 10 µM
- CCN1CCN(C(=O)NC(C(=O)N[C@H]2Cc3cccc(C(=O)O)c3OB2O)c2cc(P(=O)(O)O)ccc2F)C(=O)C1=O (stereo partly drawn) [Example 2]: < 10 µM
- NC(C(=O)N[C@H]1Cc2ccc(F)c(C(=O)O)c2OB1O)c1ccc(P(=O)(O)O)cc1 (stereo partly drawn) [Example 14]: 50 to 250 µM
- CS(=O)(=O)N1CCN(C(=O)N[C@H](C(=O)N[C@H]2Cc3cccc(C(=O)O)c3OB2O)c2ccc(P(=O)(O)O)cc2)C1=O (single isomer, unassigned) [Example 5]: < 10 µM
- CCN1CCN(C(=O)N[C@@H](C(=O)N[C@H]2Cc3cccc(C(=O)O)c3OB2O)c2ccc(P(C)(=O)O)cc2)C(=O)C1=O (single isomer, unassigned) [Example 47]: < 10 µM

# context switch: different compound, same EC50
// field: EC50; key: O=C(NC(C(=O)N[C@H]1Cc2cccc(C(=O)O)c2OB1O)c1ccc(P(=O)(O)O)cc1)c1ccc(Cl)cn1 (stereo partly drawn) [Example 184] ; value = < 10 µM

* * *

# MIC per record follows
System: N. gonorrhoeae WHO X
Test: Liquid broth MIC in Fastidious broth
Details: Neisseria gonorrhoeae, read-out: Minimum Inhibitory Concentration, WHO X

• O=C(NCCCS(=O)(=O)N1CCN(C(=O)NC(C(=O)N[C@H]2Cc3ccc(F)c(C(=O)O)c3OB2O)c2cc(F)c(O)c(O)c2Cl)C1=O)Nc1cccc(O)c1 (stereo partly drawn) = > 64 µg/mL

The molecule listed as O=C(O)c1c(F)ccc2c1OB(O)[C@@H](NC(=O)C(NC(=O)N1CCN(S(=O)(=O)CCCNC(=O)[C@@H]3CCCN3)C1=O)c1cc(F)c(O)c(O)c1Cl)C2 (stereo partly drawn) has a reported MIC of > 64 µg/mL

The molecule listed as O=C(NCCCN1CCN(C(=O)N[C@@H](C(=O)N[C@H]2Cc3ccc(F)c(C(=O)O)c3OB2O)c2cc(F)c(O)c(O)c2Cl)C(=O)C1=O)c1cccc(O)c1Cl shows MIC equal to > 64 µg/mL

* * *

Listed here are compounds together with their documented MIC.
Test system: A. baumannii ATCC 19606
Experiment: microbe, parasite or virus in culture
Format: cell-based
Details: Acinetobacter baumannii, ATCC19606, read-out: MIC, A. baumannii ATCC 19606

Some compounds with known MIC results, for comparison:
• CCN1CCN(C(=O)NC(C(=O)N[C@H]2Cc3cccc(C(=O)O)c3OB2O)c2c(F)cc(P(=O)(O)O)cc2F)C(=O)C1=O (stereo partly drawn) [Example 25] = > 128 µg/mL
• CS(=O)(=O)N1CCC[C@H]1C(=O)N[C@@H](C(=O)N[C@H]1Cc2cccc(C(=O)O)c2OB1O)c1ccc(P(=O)(O)O)cc1 [Example 44] = > 128 µg/mL

As a next step, examine the compound that follows.
The recorded MIC for O=C(NC(C(=O)N[C@H]1Cc2cccc(C(=O)O)c2OB1O)c1ccc(P(=O)(O)O)cc1)c1ccc2ccnn2c1 (stereo partly drawn) [Example 498] is > 128 µg/mL

* * *

// reported pIC50 per item
Target: PBP1a from Acinetobacter baumannii (ATCC 19606) (Acinetobacter baumannii, UniProt A0ABX6CK30)
Sequence (A0ABX6CK30 1-851): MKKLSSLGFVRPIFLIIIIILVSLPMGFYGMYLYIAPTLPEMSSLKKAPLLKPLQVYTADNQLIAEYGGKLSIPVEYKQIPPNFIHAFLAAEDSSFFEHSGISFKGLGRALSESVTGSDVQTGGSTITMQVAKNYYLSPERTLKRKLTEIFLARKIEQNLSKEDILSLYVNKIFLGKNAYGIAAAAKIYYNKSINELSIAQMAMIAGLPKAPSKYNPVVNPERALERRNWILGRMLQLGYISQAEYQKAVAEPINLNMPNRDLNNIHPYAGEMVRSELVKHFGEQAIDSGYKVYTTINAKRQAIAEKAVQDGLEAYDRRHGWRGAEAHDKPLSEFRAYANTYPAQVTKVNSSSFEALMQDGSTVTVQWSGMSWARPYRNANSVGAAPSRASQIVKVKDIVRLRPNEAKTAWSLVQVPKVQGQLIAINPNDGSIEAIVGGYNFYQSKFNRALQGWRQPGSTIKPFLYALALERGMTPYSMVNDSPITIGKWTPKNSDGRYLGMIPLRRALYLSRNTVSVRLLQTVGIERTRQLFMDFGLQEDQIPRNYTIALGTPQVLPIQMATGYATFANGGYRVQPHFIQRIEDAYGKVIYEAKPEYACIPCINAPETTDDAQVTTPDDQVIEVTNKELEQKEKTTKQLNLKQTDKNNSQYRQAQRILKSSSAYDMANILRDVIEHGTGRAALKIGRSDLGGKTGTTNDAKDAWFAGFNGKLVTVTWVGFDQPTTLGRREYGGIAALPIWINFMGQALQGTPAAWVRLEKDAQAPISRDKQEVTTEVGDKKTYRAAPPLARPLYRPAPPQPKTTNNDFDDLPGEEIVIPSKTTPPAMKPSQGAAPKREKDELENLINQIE
pIC50: −log10 of the molar value.

Guide cases for pIC50, answers given:
• CN(CCN1CCN(C(=O)N[C@@H](C(=O)N[C@H]2Cc3ccc(F)c(C(=O)O)c3OB2O)c2cc(F)c(O)c(O)c2Cl)C(=O)C1=O)Cc1ccc(N)nc1 [Example 209] = < 3.60
• O=C(CN1CCN(C(=O)NC(C(=O)N[C@H]2Cc3ccc(F)c(C(=O)O)c3OB2O)c2cc(F)c(O)c(O)c2Cl)C(=O)C1=O)NCc1cccc(O)c1 (stereo partly drawn) [Example 237] = < 3.60

Consider the additional compound presented here.
Looking up O=C(O)c1c(F)ccc2c1OB(O)[C@@H](NC(=O)C(NC(=O)N1CCN(Cc3ccc(O)c(O)c3Cl)C1=O)c1ccc(P(=O)(O)O)cc1)C2 (stereo partly drawn) [Example 46] , I see its pIC50 listed as < 3.60

* * *

System: K. pneumoniae UMM
Experiment: microbe, parasite or virus in culture
Format: cell-based
Settings: Klebsiella pneumoniae, read-out: MIC K. pneumoniae UMM
Value type: MIC

Worked cases, answers included:
* CCC(=O)NC(C(=O)N[C@H]1Cc2cccc(C(=O)O)c2OB1O)c1ccc(P(=O)(O)O)cc1 (stereo partly drawn) | > 128 µg/mL
* O=C1CC[C@@H](C(=O)NC(C(=O)N[C@H]2Cc3cccc(C(=O)O)c3OB2O)c2ccc(P(=O)(O)O)cc2)N1 (stereo partly drawn) | > 128 µg/mL
* O=C(O)c1c(F)ccc2c1OB(O)[C@@H](NC(=O)C(NC(=O)N1CCN(S(=O)(=O)c3ccc(O)c(O)c3Cl)C1=O)c1ccc(P(=O)(O)O)cc1)C2 (stereo partly drawn) | < 1 µg/mL
* O=C(O)c1cccc2c1OB(O)[C@@H](NC(=O)[C@H](NC(=O)N1CCNC1=O)c1ccc(P(=O)(O)O)cc1)C2 | 32 to 64 µg/mL
* CCN1CCN(C(=O)N[C@H](C(=O)N[C@H]2Cc3ccc(F)c(C(=O)O)c3OB2O)c2ccc(P(=O)(O)O)cc2)C(=O)C1=O (single isomer, unassigned) | > 128 µg/mL

# evaluate next
Form field MIC, entry CN1CCCN(C(=O)NC(C(=O)N[C@H]2Cc3cccc(C(=O)O)c3OB2O)c2ccc(P(=O)(O)O)cc2)C1=O (stereo partly drawn) : > 128 µg/mL
